B1: CDC14A (parent)
chain: GPHPKSKIENGYPLHAPEAYFPYF

Variants of: B1
run-description: protein stability index of a GFP-peptide fusion (GPS, HEK-293T) (PSI 1-6); higher = more stable;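 further: lentivirally expressed fusions sorted by FACS into six bins by GFP to DsRed ratio, PSI derived from sequencing read proportions per bin multiplied by bin number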
condition-details: c terminus: a fixed tail appended
Answer each item with its documented protein stability index.
Numbers only.

mutation_name=N10P value=2.52

Parameters: items (list). Returns: protein stability index for each item.
1. A19S
2. P22Q
3. G11L

A)
1. 2.35
2. 2.47
3. 2.56

Values were extracted from the supplement of paper PMC10567573.
